The measurements presented in this section are drawn from patent US20240376084A1.

Catalogue of pEC50 values
Tested System: hemolysin alpha from Staphylococcus aureus (Staphylococcus aureus, UniProt P09616)
Sequence (P09616 27-319 limits assumed): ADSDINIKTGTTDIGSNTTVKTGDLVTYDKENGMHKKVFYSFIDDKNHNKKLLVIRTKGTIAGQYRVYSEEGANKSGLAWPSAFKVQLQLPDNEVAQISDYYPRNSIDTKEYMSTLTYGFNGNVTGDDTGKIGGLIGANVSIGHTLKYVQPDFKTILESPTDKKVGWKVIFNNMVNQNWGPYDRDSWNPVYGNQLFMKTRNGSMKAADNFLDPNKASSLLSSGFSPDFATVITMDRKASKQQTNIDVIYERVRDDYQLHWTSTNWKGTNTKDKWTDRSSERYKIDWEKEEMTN
Protocol Description: cell-based
pEC50: −log10 of the molar value.

Guide cases for pEC50, answers given:
Cc1cc2[nH]c(=O)c(=O)[nH]c2cc1S(=O)(=O)Nc1ccc(-c2ccc(F)cc2)c(N(C)C)c1    6.00 to 7.00
Cc1cc2[nH]c(=O)c(=O)[nH]c2cc1S(=O)(=O)Nc1ccc(-c2ccc3c(c2)NC(=O)C3)c(Cl)c1    7.00 to 7.52
Cc1cc2[nH]c(=O)c(=O)[nH]c2cc1S(=O)(=O)Nc1ccc(N2CCCC2)c(Cl)c1    7.00 to 7.52
Cc1cc2[nH]c(=O)c(=O)[nH]c2cc1S(=O)(=O)Nc1ccc(-c2ccc3c(c2)NC(=O)CO3)c(C(F)(F)F)c1    > 7.52

Sample Cc1cc2[nH]c(=O)c(=O)[nH]c2cc1S(=O)(=O)Nc1cc(Cl)c(-c2ccc(F)cc2)cn1 ; pEC50 observed: 7.00 to 7.52

Sample Cc1cc2[nH]c(=O)c(=O)[nH]c2cc1S(=O)(=O)Nc1ccc(-c2cccc(OCCN(C)C)c2)c(Cl)c1 ; pEC50 observed: 6.00 to 7.00

Sample Cc1cc2[nH]c(=O)c(=O)[nH]c2cc1S(=O)(=O)Nc1ccc(-c2cccc(C(N)=O)c2)c(Cl)c1 ; pEC50 observed: > 7.52

* * *

Tested System: hemolysin alpha from Staphylococcus aureus (Staphylococcus aureus)
Protocol Description: cell-based
pEC50: −log10 of the molar value.
Catalogue of pEC50 values

Guide cases for pEC50, answers given:
Cc1cc2[nH]c(=O)c(=O)[nH]c2cc1S(=O)(=O)Nc1ccc(-c2ccc(F)c(F)c2F)c(Cl)c1    7.00 to 7.52
Cc1cc2[nH]c(=O)c(=O)[nH]c2cc1S(=O)(=O)Nc1ccc2c(c1)OC(F)(F)O2    6.00 to 7.00

Sample Cc1cc2[nH]c(=O)c(=O)[nH]c2cc1S(=O)(=O)Nc1nc(C)c(-c2ccccc2)s1 ; pEC50 observed: 5.46 to 6.00

Sample CNc1cc2[nH]c(=O)c(=O)[nH]c2cc1S(=O)(=O)Nc1ccc(OC(F)(F)F)cc1 ; pEC50 observed: 6.00 to 7.00

* * *

Tested System: UniProtKB P09616
Protocol Description: cell-based
Catalogue of EC50 values

COc1cc(OC)cc(-c2ccc(NS(=O)(=O)c3cc4[nH]c(=O)c(=O)[nH]c4cc3C)cc2Cl)c1 [Compound 258]    100 to 1000 nM
COc1cc2[nH]c(=O)c(=O)[nH]c2cc1S(=O)(=O)Nc1ccc(Cl)cc1 [Compound 380]    1000 to 3500 nM
Cc1cc2[nH]c(=O)c(=O)[nH]c2cc1S(=O)(=O)Nc1ccc(-c2cc(F)cc(F)c2)c(Cl)c1 [Compound 309]    < 30 nM
Cc1cc2[nH]c(=O)c(=O)[nH]c2cc1S(=O)(=O)Nc1ccc(-c2ccc(OC(F)(F)F)cc2)c(Cl)c1 [Compound 277]    100 to 1000 nM
Cc1cc2[nH]c(=O)c(=O)[nH]c2cc1S(=O)(=O)Nc1ccc(-c2cccc(CN)c2)c(Cl)c1 [Compound 342]    1000 to 3500 nM
N#Cc1cc2[nH]c(=O)c(=O)[nH]c2cc1S(=O)(=O)Nc1ccc(OC(F)(F)F)cc1 [Compound 216]    100 to 1000 nM
CC(C)=Cc1ccc(NS(=O)(=O)c2cc3[nH]c(=O)c(=O)[nH]c3cc2C)cc1Cl [Compound 296]    30 to 100 nM
Cc1cc(NS(=O)(=O)c2ccc3[nH]c(=O)c(=O)[nH]c3c2)ccc1Br [drawing 471 (R^2 = H), reference compound]    1690 nM
Cc1cc2ccc(-c3ccc(NS(=O)(=O)c4cc5[nH]c(=O)c(=O)[nH]c5cc4C)cc3Cl)cc2[nH]1 [Compound 349]    < 30 nM
COc1ccc(-c2ccc(NS(=O)(=O)c3cc4[nH]c(=O)c(=O)[nH]c4cc3C)cc2C(F)(F)F)cc1F [Compound 345]    < 30 nM

Now consider a different compound.
Sample COc1ccc(-c2ccc(NS(=O)(=O)c3cc4[nH]c(=O)c(=O)[nH]c4cc3C)cc2Cl)cc1F [Compound 320] ; EC50 observed: < 30 nM
